Test: First-in-human study: plasma pharmacokinetics in healthy subjects
Assay type: in vivo
Conditions: human, plasma, oral, across QD and BID dose levels; read-out: mean t1/2 (converted)

{"columns": ["Compound", "half-life"],
 "data": [
  ["CC(C)(O)c1ncc([S@](N)(=O)=NC(=O)Nc2c3c(cc4c2CCC4)CCC3)s1 [Compound IA]", "9.83 to 16.2 h"]
]}

====

Test: First-in-human study: plasma pharmacokinetics in healthy subjects
Type: in vivo
Conditions: human, urine, oral, steady state (Day 14); read-out: Renal clearance (converted)
Result Type: CL renal

{"columns": ["Chemical Smiles", "Test Value"],
 "data": [
  ["CC(C)(O)c1ncc([S@](N)(=O)=NC(=O)Nc2c3c(cc4c2CCC4)CCC3)s1", "~0.133 mL/min"]
]}

====

Experiment: First-in-human study: plasma pharmacokinetics in healthy subjects
Type: in vivo
Details: human, urine, oral, Day 1; read-out: Renal clearance (converted)

{"columns": ["Chemical Smiles", "CL renal"],
 "data": [
  ["CC(C)(O)c1ncc([S@](N)(=O)=NC(=O)Nc2c3c(cc4c2CCC4)CCC3)s1", "~0.0667 mL/min"]
]}

====

Assay: First-in-human study: plasma pharmacokinetics in healthy subjects
Format: in vivo
Conditions: human, plasma, oral, 100 mg, suspension formulation; read-out: mean t1/2 (converted)
Result Type: half-life (h)

{"columns": ["Chemical Smiles", "Result Type", "Test Value"],
 "data": [
  ["CC(C)(O)c1ncc([S@](N)(=O)=NC(=O)Nc2c3c(cc4c2CCC4)CCC3)s1", "half-life", 17.7]
]}

Data provenance: patent US20250082611A1
